Experiment: Anti-inflammatory activity against human derived medium respond PBMC cells assessed as inhibition in stimulated IP-10 chemokine release incubated for 2 hrs in the presence of LPS/SEB/aCD28 by Luminex based sandwich immunoassay
Format: functional, cell-based
measured-quantity: IC50 (µM)
Give your result in µM as a bare value.

Incoming: Please give measured IC50 of the following entry: O=C1c2ccc(Nc3ccc(F)cc3F)cc2CCc2ccc(OC[C@H](O)CO)cc21 [Skepinone-L]
Outgoing: 5.9

----------
Assay: Anti-inflammatory activity against human derived high respond PBMC cells assessed as inhibition in stimulated INFgamma cytokine release incubated for 2 hrs in the presence of LPS/SEB/aCD28 by Luminex based sandwich immunoassay
Type: functional, cell-based
measured-quantity: IC50
Reply with a number, then the unit it belongs to.

Incoming: Answer with the recorded IC50 of O=C1c2ccc(Nc3ccc(F)cc3F)cc2CCc2ccc(OC[C@H](O)CO)cc21 [Skepinone-L] only.
Outgoing: 60 nM
